Target: full length human PAR-2 (human, UniProt P55085 26-397)
Sequence (P55085 26-397 G138A limits assumed): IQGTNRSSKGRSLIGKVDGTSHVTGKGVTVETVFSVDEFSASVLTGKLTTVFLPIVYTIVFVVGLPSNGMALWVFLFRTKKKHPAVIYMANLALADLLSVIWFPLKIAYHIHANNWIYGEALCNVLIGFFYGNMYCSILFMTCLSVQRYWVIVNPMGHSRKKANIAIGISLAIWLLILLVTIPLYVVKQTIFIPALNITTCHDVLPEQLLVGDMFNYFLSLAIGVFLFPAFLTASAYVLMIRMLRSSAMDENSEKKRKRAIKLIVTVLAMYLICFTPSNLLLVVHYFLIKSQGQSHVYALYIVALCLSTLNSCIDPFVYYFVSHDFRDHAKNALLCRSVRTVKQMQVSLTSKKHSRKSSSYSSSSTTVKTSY
Experiment: cell-based or functional assay
measured property: IC50, NF-kB-luciferase, 250 nM Trypsin (nM)
// note: answer is a bare numeric in nM

[[record]]
binder = "H2M589N (antibody, V domains shown, chimeric: human variable, mouse constant domains) VH: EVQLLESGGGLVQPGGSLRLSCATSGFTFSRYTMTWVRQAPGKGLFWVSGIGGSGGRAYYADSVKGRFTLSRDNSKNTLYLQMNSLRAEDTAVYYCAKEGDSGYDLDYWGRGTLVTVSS VL: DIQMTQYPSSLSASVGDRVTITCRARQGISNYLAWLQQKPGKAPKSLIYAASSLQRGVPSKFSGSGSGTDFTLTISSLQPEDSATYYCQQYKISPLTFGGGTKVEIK"
uom = "nM"
measurement = 6.3


Sample H2M588N (antibody, V domains shown, chimeric: human variable, mouse constant domains) VH: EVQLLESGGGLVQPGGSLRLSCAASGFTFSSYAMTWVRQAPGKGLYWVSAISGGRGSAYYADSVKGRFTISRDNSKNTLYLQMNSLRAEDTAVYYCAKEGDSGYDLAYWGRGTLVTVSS VL: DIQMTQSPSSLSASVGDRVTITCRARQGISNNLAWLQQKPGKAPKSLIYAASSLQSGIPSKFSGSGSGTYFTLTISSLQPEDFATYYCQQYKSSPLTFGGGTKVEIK — what was its IC50, NF-kB-luciferase, 250 nM Trypsin?
2.3

And what about the binder H2M618N (antibody, V domains shown, chimeric: human variable, mouse constant domains) VH: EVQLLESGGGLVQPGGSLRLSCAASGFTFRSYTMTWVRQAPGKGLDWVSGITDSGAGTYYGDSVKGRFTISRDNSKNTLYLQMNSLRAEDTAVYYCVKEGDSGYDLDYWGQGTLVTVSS VL: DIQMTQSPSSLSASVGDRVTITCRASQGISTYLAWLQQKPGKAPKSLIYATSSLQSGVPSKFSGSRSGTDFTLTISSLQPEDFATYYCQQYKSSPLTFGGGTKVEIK ?
6.6

And what about the binder H2M591N (antibody, V domains shown, chimeric: human variable, mouse constant domains) VH: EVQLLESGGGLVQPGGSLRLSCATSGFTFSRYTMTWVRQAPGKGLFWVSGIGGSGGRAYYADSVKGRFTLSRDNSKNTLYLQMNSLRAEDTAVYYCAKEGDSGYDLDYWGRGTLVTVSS VL: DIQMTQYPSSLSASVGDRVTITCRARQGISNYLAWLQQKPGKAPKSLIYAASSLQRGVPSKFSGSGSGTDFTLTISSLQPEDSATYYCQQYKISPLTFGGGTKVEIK ?
4.5
